Biological target: T1, 4H2699-AA
T1 chain: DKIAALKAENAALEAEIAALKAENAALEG
Test: two-hybrid library CCmax;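 further: natural log of median RNA to DNA barcode read ratio; higher means stronger binding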
Settings: mean of both orientations
Entries and their interaction score values follow.
Give the value as a plain number.

Solved entries (count: 2):
In [3]: df
Out[3]:
                                     binder  reported
0  DENAALKAEIAALEAENAALEAKIAALKG [4H1558-AA]    -0.582
1  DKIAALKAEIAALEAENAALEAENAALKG [4H2580-AA]     -1.81

Q) Value lookup for interaction score; key = DKIAALKAEIAALEAKNAALKAKIAALEG [4H2621-AA]
A) -0.173

Q) Value lookup for interaction score; key = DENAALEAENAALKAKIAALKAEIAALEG [4H1257-AA]
A) -0.951

Q) Value lookup for interaction score; key = DEIAALEAENAALEAEIAALEAEIAALKG [4H130-AA]
A) -0.46

Q) Value lookup for interaction score; key = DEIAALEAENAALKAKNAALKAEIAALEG [4H249-AA]
A) -1.1

Q) Value lookup for interaction score; key = DENAALKAKIAALKAKNAALKAEIAALEG [4H1913-AA]
A) -0.293
